# Tested on: HS 578T breast
# test.description: NCI tumour cell line growth inhibition, 48 h; in the data active means GI50 below about 0.43 µM; inactive means the rest
Use one of these outcomes when replying: 1 (yes) for active, 0 (no) for inactive

Some solved entries appear below for comparison.
[
  {
    "compound": "C=C1CO[C@@H]2C[C@@H]1CCC1(C)OC1CC/C(C)=C/CC[C@@]2(C)O (stereo partly specified)",
    "target.under.test": "HS 578T breast",
    "classification": "0 (no)"
  },
  {
    "compound": "COc1cccc2c(Nc3ccc(C(=O)NCCN(C)C)cc3)cc(-c3ccccc3)nc12",
    "target.under.test": "HS 578T breast",
    "classification": "0 (no)"
  },
  {
    "compound": "Clc1ccc(Nc2nc3ccccc3c3occc23)cc1",
    "target.under.test": "HS 578T breast",
    "classification": "0 (no)"
  },
  {
    "compound": "COc1ccc(C(=O)N/N=C/c2ccc(O)cc2O)cc1Nc1ccnc(C(F)(F)F)c1",
    "target.under.test": "HS 578T breast",
    "classification": "0 (no)"
  },
  {
    "compound": "CCOC(=O)c1cnc2c(cnn2CC)c1NN=C(C)C",
    "target.under.test": "HS 578T breast",
    "classification": "0 (no)"
  },
  {
    "compound": "COC(=O)[C@]12CC[C@@H](C)[C@H](C)[C@@H]1C1=CC[C@@H]3[C@@]4(C)C=C(O)C(=O)C(C)=C4CC[C@@]3(C)[C@]1(C)CC2",
    "target.under.test": "HS 578T breast",
    "classification": "0 (no)"
  },
  {
    "compound": "O=C(Nc1ccccc1F)c1ccc(NC2=C(Cl)C(=O)N(Cc3ccccc3)C2=O)cc1",
    "target.under.test": "HS 578T breast",
    "classification": "0 (no)"
  },
  {
    "compound": "c1ccc2c(c1)ccc1c3ccccc3ccc21",
    "target.under.test": "HS 578T breast",
    "classification": "0 (no)"
  },
  {
    "compound": "COc1cc2c3c(n(C)c(=O)c2cc1OC)-c1cc2c(cc1/C3=C\\[C@@H](N)CCCCN)OCO2",
    "target.under.test": "HS 578T breast",
    "classification": "0 (no)"
  },
  {
    "compound": "COc1ccc(-c2[nH]ncc2-c2cc(OC)c(OC)c(OC)c2)cc1",
    "target.under.test": "HS 578T breast",
    "classification": "1 (yes)"
  }
]

Then there is this compound:
Query string: Status in this test for CCCCC#Cc1cccc(=O)o1 ?
Result string: 0 (no)

====

# Test system: ACHN renal
# test.description: NCI tumour cell line growth inhibition, 48 h
reported.metric: TGI

[
  {
    "molecule": "CCC(C)CC(CC)NCCN1CCN(C(CC)CC(C)CC)C1=S (configuration not stated)",
    "reported.metric": "TGI",
    "result": "3.14 µM"
  },
  {
    "molecule": "O=c1c(S(=O)(=O)Oc2ccccc2)coc2cc(F)ccc12",
    "reported.metric": "TGI",
    "result": "> 100 µM"
  },
  {
    "molecule": "Cn1cnc([N+](=O)[O-])c1Sc1nnc(C(F)(F)F)n1C",
    "reported.metric": "TGI",
    "result": "57.4 µM"
  },
  {
    "molecule": "COc1ccc(Nc2c[nH]c(=O)[nH]c2=O)cc1",
    "reported.metric": "TGI",
    "result": "> 100 µM"
  },
  {
    "molecule": "COC1=C(OC)C(=O)C(Cc2c(Cl)nc3n2CCS3)=C(C)C1=O",
    "reported.metric": "TGI",
    "result": "33.2 µM"
  },
  {
    "molecule": "CC(C)(C)c1nnc2n(c1=O)N=CC(c1ccc(Br)cc1)S2 (configuration not stated)",
    "reported.metric": "TGI",
    "result": "75.9 µM"
  }
]

Entry CCOC(=O)c1ccc(NC(NC(=O)CC)(C(F)(F)F)C(F)(F)F)cc1 under ACHN renal had TGI of > 100 µM

Entry Cc1ccc(Nc2ccc(Nc3ccc(C)cc3S(=O)(=O)O)c3c2C(=O)c2ccccc2C3=O)c(S(=O)(=O)O)c1 under ACHN renal had TGI of > 100 µM

Entry Nc1nc(Nc2ccc3c(c2)CCC(N2CCCC2)CC3)nn1-c1cc2c(nn1)-c1ccccc1CCC2 (configuration not stated) under ACHN renal had TGI of 1.59 µM

====

# Tested on: EKVX NSCLC
# test.description: NCI tumour cell line growth inhibition, 48 h
Measured TGI values are reported for all entries that follow.

In the examples that follow, each entry is paired with its recorded TGI.
[
  {
    "compound": "COc1ccc(CCC2NCCc3cc(OC)c(OC)cc32)cc1 (stereo unspecified)",
    "reported.metric": "TGI",
    "result": "> 100 µM"
  },
  {
    "compound": "CCCC1C(C#N)(C#N)C(C#N)=C(N)C1(C)C(C)=O (stereo unspecified)",
    "reported.metric": "TGI",
    "result": "> 100 µM"
  },
  {
    "compound": "CCN1CCCCC(=N\\O)/C(=N/O)CCCC1",
    "reported.metric": "TGI",
    "result": "> 100 µM"
  },
  {
    "compound": "O=C(CC(=O)c1ccccc1NC1=Cc2ccccc2C(=O)C1=O)C(=O)NC1=C(Cl)C(=O)c2ccccc2C1=O",
    "reported.metric": "TGI",
    "result": "22.4 µM"
  },
  {
    "compound": "Cc1nc2sccn2c1C(=O)OCCOCCOCCOCCOC(=O)c1c(C)nc2sccn12",
    "reported.metric": "TGI",
    "result": "> 100 µM"
  },
  {
    "compound": "CC(C)(C)C(=O)OCC(COC(=O)C(C)(C)C)[N+](=O)[O-]",
    "reported.metric": "TGI",
    "result": "> 100 µM"
  },
  {
    "compound": "c1cn[nH]c1",
    "reported.metric": "TGI",
    "result": "> 10 µM"
  },
  {
    "compound": "CC(C)(C)OC(=O)N1C/C=C\\C(=O)C2(OCCO2)c2ccccc21",
    "reported.metric": "TGI",
    "result": "> 100 µM"
  }
]

Record CCc1nc(N)nc(N)c1-c1ccc(Cl)c(N=NN(C)C)c1 , field TGI: > 95.2 µM

Record Clc1ccc(-c2nn3c(C45CC6CC(CC(C6)C4)C5)nnc3s2)cc1 , field TGI: > 100 µM

Record CN1N(c2ccccc2)C(=O)C2=NC=C(C#N)C(=N)C21C (stereo unspecified) , field TGI: > 100 µM

====

Measured TGI values are reported for all entries that follow.
# System: SK-MEL-5 melanoma
# test.description: NCI tumour cell line growth inhibition, 48 h
All answers are understood in µM, so give the number only.

In the examples that follow, each entry is paired with its recorded TGI.
[
  {
    "compound": "CCOC(=O)O/N=C1/C(c2c(O)[nH]c3ccccc23)=Nc2ccccc21",
    "measurement.units": "µM",
    "number": 6.99
  },
  {
    "compound": "C/C(NC(=O)c1ccccc1)=C(/C(=O)c1ccccc1)[C@@H]1OC(C)(C)O[C@@H]1[C@H]1COC(C)(C)O1",
    "measurement.units": "µM",
    "number": 35.6
  },
  {
    "compound": "CN1CCN(c2cc(Nc3cc(C4CC4)[nH]n3)nc(Nc3ccc(CC(=O)NCc4cccc(F)c4)cc3)n2)CC1",
    "measurement.units": "µM",
    "number": 3.08
  },
  {
    "compound": "COc1cc(/C=C/C(=O)c2cc(OC)c(OC)c(OC)c2)cc(OC)c1OC",
    "measurement.units": "µM",
    "number": 21.1
  }
]

Entry Cc1cnc2[nH]c(-c3cccc(Cl)c3)cc(=O)c2c1 under SK-MEL-5 melanoma had TGI of 16

Entry N#CI1OC(C(F)(F)F)(C(F)(F)F)c2ccccc21 under SK-MEL-5 melanoma had TGI of 33.8

Entry CCCCc1nc2cc(/C=C/C(=O)NO)ccc2n1CCN(CC)CC under SK-MEL-5 melanoma had TGI of 0.339

Entry Cc1ccsc1/C=N/Nc1ccccn1 under SK-MEL-5 melanoma had TGI of 54.4

Entry COC(=O)c1cc2c(cc1Cl)SC(N(N(C)C)S(=O)(=O)c1ccc(Cl)cc1)=NS2(=O)=O under SK-MEL-5 melanoma had TGI of 27.7

Entry CC(=O)OC1=C2C(CC3C4CC=C5CC(OC(C)=O)CCC5(C)C4CCC23C)C2C(=O)N(Cc3ccccc3)C(=O)C2C1 (stereo not drawn) under SK-MEL-5 melanoma had TGI of 4.79

Entry COc1ccc(/C=C/C(c2cc(OC)c(OC)c(OC)c2)n2cncn2)cc1O (stereo not drawn) under SK-MEL-5 melanoma had TGI of 35.4

Entry CCCCNCC(O)c1cc(-c2ccc(C(F)(F)F)cc2)nc(-c2ccc(C(F)(F)F)cc2)c1 (stereo not drawn) under SK-MEL-5 melanoma had TGI of 3.26

Entry CC(C)(CCC(C)(C)c1ccccc1)c1ccccc1 under SK-MEL-5 melanoma had TGI of 28.5

Entry CN1CCN(c2c(O)c3c(c(O)c2Cl)C(=O)C=CC3=O)CC1 under SK-MEL-5 melanoma had TGI of 1.11

# credit: PubChem BioAssay (NCI)
